Exercise: for every item that follows, state its recorded selective drug sensitivity score.
- Tested on: KASUMI-10;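 further: ALL cell lines in 384-well plates, five doses spanning 10,000-fold, each plate scaled between vehicle and 100 µmol/L benzalkonium chloride controls, sDSS an adapted area-under-curve metric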
- measurement notes: selective drug sensitivity score (sDSS, relative to normal bone marrow) (sDSS (score)); higher = more potent and effective on the cell line relative to normal bone marrow cells
- conditions used: 72 h
Give the figure by itself; no unit, no explanation.

Quick one: selective drug sensitivity score for CCN1CCN(Cc2ccc(Nc3ncc(F)c(-c4cc(F)c5nc(C)n(C(C)C)c5c4)n3)nc2)CC1 [Abemaciclib] (top concentration 2500 nM) ?
-1.06

Can you handle Cc1cc(C)c(CNC(=O)c2cc(-c3ccc(CN4CCOCC4)cc3)cc3c2cnn3C2CCCC2)c(=O)[nH]1 [EPZ-5687] (top concentration 10000 nM) next?
-0.36

Can you handle Cc1sc2c(c1C)C(c1ccc(Cl)cc1)=N[C@@H](CC(=O)Nc1ccc(O)cc1)c1nnc(C)n1-2 [Birabresib] (top concentration 10000 nM) next?
7.02

Can you handle Oc1ncnc2[nH]ncc12 [Allopurinol] (top concentration 10000 nM) next?
-0.64

Can you handle COc1cc(Nc2ncc(F)c(Nc3ccc4c(n3)N(COP(=O)(O)O)C(=O)C(C)(C)O4)n2)cc(OC)c1OC [Fostamatinib] (top concentration 2500 nM) next?
8.66

FYI, the data here is from the supplement of paper PMC8967900.
